Test system: KM12 colon
Test: NCI tumour cell line growth inhibition, 48 h
Recorded TGI, one value per entry.

Below: 5 compounds and their reported TGI.
{"columns": ["COMPOUND", "READOUT_KIND", "OBSERVED_VALUE"],
 "data": [
  ["CN1CCN(c2ccncc2S(=O)(=O)N2CCN(C)CC2)CC1", "TGI", "> 100 µM"],
  ["COc1ccc2cc(C(=O)N3CCC([C@@H](C)C(=O)NCc4ccc5c(c4)OCO5)CC3)[nH]c2c1", "TGI", "> 100 µM"],
  ["CCOc1cc2c(cc1O)C=C[C@@H]1[C@@H]2CC[C@]2(C)[C@@H](O)CC[C@@H]12", "TGI", "20.9 µM"],
  ["CC1=C(C(=O)O)N2C(=O)[C@@H](NC(=O)C(c3ccccc3)N3CSC(=S)N(C(C)C)C3)C2SC1 (stereo not given in full)", "TGI", "> 100 µM"],
  ["COC(=O)CCCCCOS(=O)(=O)c1ccc(C)cc1", "TGI", "> 100 µM"]
]}

Quickly give me recorded TGI for C/C(=N\N)C(CN1CCOCC1)C(c1ccccc1)c1c(O)c2ccccc2oc1=O (stereo not given)
> 100 µM

Identify the reported TGI for the following entry. CC12CP(=O)(O)CC1C2(Cl)Cl (stereo not given)
> 100 µM

Identify measured TGI corresponding to C#Cc1cccc(Nc2nc(C)nc3cc(NC(=O)CCl)ccc23)c1
8.15 µM

Output measured TGI for this item: [N-]=[N+]=C1C(=O)C2CC3CC1CC2C3 (stereo not given)
> 100 µM

Give recorded TGI. Cn1c(=O)nc2n(-c3ccc(F)c(F)c3)c3ccccc3nc-2c1=O
> 100 µM
